tested on: Cytospora mali; test: Antifungal activity against Valsa mali assessed as bacterial growth inhibition at 50 ug/ml incubated for 5 days relative to control; type: functional; conditions: 120 h, time 5 day
For each of the compounds below, state its inhibition at 50 µg/mL.
Note: unit % is implicit; provide only the numeric part.

Fill in inhibition at 50 µg/mL for record "CCCn1cnc2ccc(Cl)cc2c1=O"
40.9

Fill in inhibition at 50 µg/mL for record "CCn1cnc2ccc(Br)cc2c1=O"
0.9

Fill in inhibition at 50 µg/mL for record "C=CCn1cnc2ccccc2c1=O"
0.9

Fill in inhibition at 50 µg/mL for record Cc1cc(O)no1 [HYMEXAZOL]
22.5

Fill in inhibition at 50 µg/mL for record "CCn1cnc2ccc(Cl)cc2c1=O"
0.9

Fill in inhibition at 50 µg/mL for record "C=CCn1cnc2ccc(Cl)cc2c1=O"
28.3

Fill in inhibition at 50 µg/mL for record "CCn1cnc2ccc(F)cc2c1=O"
0.9

Fill in inhibition at 50 µg/mL for record "CCCn1cnc2ccc(F)cc2c1=O"
0.9

Fill in inhibition at 50 µg/mL for record "CCCn1cnc2ccc(Br)cc2c1=O"
0.9

Fill in inhibition at 50 µg/mL for record "CCCn1cnc2ccccc2c1=O"
0.9

Fill in inhibition at 50 µg/mL for record "C=CCn1cnc2ccc(F)cc2c1=O"
0.9

Fill in inhibition at 50 µg/mL for record "CCn1cnc2ccccc2c1=O"
0.9

Fill in inhibition at 50 µg/mL for record "C=CCn1cnc2ccc(Br)cc2c1=O"
30.4

* * *

experiment: Binding affinity to AT1 in rabbit aorta; assay type: tissue-based, Oryctolagus cuniculus
experimentalEndpoint: IC50

Fill in IC50 for record "CS(C)(=O)=O"
2.6 nM

Fill in IC50 for record "CCCCc1nc2ccccc2c(=O)n1Cc1ccc(-c2ccccc2-c2nn[nH]n2)cc1"
≥ 1.3 nM

Fill in IC50 for record "CCCCc1nc2ccc(C)cc2c(=O)n1Cc1ccc(-c2ccccc2C(=O)O)cc1"
10 nM

Fill in IC50 for record "CCCCc1nc2ccc(C(F)(F)F)cc2c(=O)n1Cc1ccc(-c2ccccc2-c2nn[nH]n2)cc1"
≥ 1.3 nM

Fill in IC50 for record "CCc1nc2ccc(C)cc2c(=O)n1Cc1ccc(-c2ccccc2-c2nn[nH]n2)cc1"
≥ 1.3 nM

Fill in IC50 for record "CCCCc1nc2ccc(Cl)cc2c(=O)n1Cc1ccc(-c2ccccc2-c2nn[nH]n2)cc1"
≥ 1.3 nM

Fill in IC50 for record "CCCCc1nc2ccc(C)cc2c(=O)n1Cc1ccc(-c2ccccc2-c2nn[nH]n2)cc1"
≥ 1.3 nM

Fill in IC50 for record "CCCCc1nc2cccc(F)c2c(=O)n1Cc1ccc(-c2ccccc2-c2nn[nH]n2)cc1"
≥ 1.3 nM

Fill in IC50 for record "CCCCc1nc2ccc(NC(C)=O)cc2c(=O)n1Cc1ccc(-c2ccccc2-c2nn[nH]n2)cc1"
≥ 1.3 nM

* * *

test: Cytotoxicity against human CEM/ADR5000 cells assessed as reduction in cell growth; type: toxicity, cell-based
experimentalEndpoint: pEC50
Lab note — pEC50 values are minus log10 of concentrations in M.

Fill in pEC50 for record C[C@H]1[C@H](OC(=O)CCC(=O)O)O[C@@H]2O[C@@]3(C)CC[C@H]4[C@H](C)CC[C@@H]1[C@@]24OO3 [ARTESUNATE]
6.30
